Attribution: patent US20250295799A1

- Target Of Assay: T1, recombinant human GPC3 (glypican-3) (human, UniProt P51654 25-559)
- T1 construct: also called huGPC3; hGPC3
- Experiment Notes: SPR (Biacore T200), antibody captured by anti-Fc, GPC3 injected
Property: Avg % binding huGPC3 (RU observed/theoretical) (%)

v40207, H18L6_LC_G34K mAb (antibody, human IgG1, kappa, V domains shown) VH: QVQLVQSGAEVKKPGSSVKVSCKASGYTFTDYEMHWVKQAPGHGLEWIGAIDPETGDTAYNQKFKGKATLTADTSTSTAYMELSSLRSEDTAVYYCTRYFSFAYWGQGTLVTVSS VL: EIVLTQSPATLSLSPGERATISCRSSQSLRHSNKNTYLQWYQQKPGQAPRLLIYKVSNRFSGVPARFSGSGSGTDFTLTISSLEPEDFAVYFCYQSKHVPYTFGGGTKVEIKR: 42.2
v40208, H18L6_LC_G34Q mAb (antibody, human IgG1, kappa, V domains shown) VH: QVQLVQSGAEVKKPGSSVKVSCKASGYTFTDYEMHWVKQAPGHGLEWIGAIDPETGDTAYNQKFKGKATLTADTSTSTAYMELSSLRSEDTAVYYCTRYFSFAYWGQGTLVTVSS VL: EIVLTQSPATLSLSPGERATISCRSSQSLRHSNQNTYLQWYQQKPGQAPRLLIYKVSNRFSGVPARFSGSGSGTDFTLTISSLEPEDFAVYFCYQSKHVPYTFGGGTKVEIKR: 46.3
